study_system: XIAP BIR3 (Homo sapiens)
Construct: His-BIR3 (241-356, XIAP)
Sequence (P98170 241-356): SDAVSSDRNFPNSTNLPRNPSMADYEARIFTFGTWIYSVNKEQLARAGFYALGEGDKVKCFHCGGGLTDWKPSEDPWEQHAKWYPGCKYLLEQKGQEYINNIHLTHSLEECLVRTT
assay_text: XIAP-BIR3/SMAC Homogeneous Time Resolved Fluorescence (HTRF) Assay
Assay type: binding
measurement_parameters: 1 nM N-His-BIR3 (241-356, XIAP), 5 nM fluorescein labeled SMAC peptide; HTRF signal; read-out: XIAP BIR3 IC50
value_kind: IC50 (nM)

• CN[C@@H](C)C(=O)N[C@H](C(=O)N1Cc2cc([C@H]3C[C@@H](C(=O)N[C@@H]4CCCc5ccccc54)N(C(=O)[C@@H](NC(=O)[C@H](C)NC)C(C)(C)C)C3)ccc2C[C@H]1C(=O)N[C@@H](Cc1ccccc1)C(=O)N(C)C)C(C)(C)C [Example 42] = 1.6
• CCC(CC)[C@H](NC(=O)[C@H](C)NC)C(=O)N1C[C@@H](NC(=O)c2ccc3c(c2)CN(C(=O)[C@@H](NC(=O)[C@H](C)NC)C(C)(C)C)[C@H](C(=O)N[C@@H]2CCCc4ccccc42)C3)C[C@H]1C(=O)N[C@@H]1CCCc2ccccc21 [Example 17] = 2
• CN[C@@H](C)C(=O)N[C@H](C(=O)N1C[C@@H](c2ccc3c(c2)CN(C(=O)[C@@H](NC(=O)[C@H](C)NC)C(C)(C)C)[C@H](C(=O)N[C@@H]2CCCc4ccccc42)C3)C[C@H]1C(=O)N[C@@H](Cc1ccccc1)C(=O)N(C1CC1)C1CC1)C(C)(C)C [Example 63] = 16.7
• CN[C@@H](C)C(=O)N[C@H](C(=O)N1Cc2cc([C@H]3C[C@@H](C(=O)N[C@@H]4CCCc5ccccc54)N(C(=O)[C@@H](NC(=O)[C@H](C)NC)C(C)(C)C)C3)ccc2C[C@H]1C(=O)N[C@@H](Cc1ccccc1)c1noc(C)n1)C(C)(C)C [Example 45] = 9.2

----------
Listing of recorded pIC50 by entry.
study_system: XIAP BIR2-3 (Homo sapiens, UniProt P98170, C202A/C213G)
Construct: His-BIR2-3 (125-356, C202A/C213G, XIAP)
Sequence (P98170 125-356 C202A/C213G): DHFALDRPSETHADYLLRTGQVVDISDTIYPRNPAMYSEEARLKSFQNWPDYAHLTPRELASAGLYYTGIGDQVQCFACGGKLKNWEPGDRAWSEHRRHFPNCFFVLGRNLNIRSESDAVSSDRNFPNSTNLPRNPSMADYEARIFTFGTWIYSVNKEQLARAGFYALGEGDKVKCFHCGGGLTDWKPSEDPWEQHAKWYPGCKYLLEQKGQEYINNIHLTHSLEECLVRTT
assay_text: XIAP-BIR2-3 dimeric SMAC Peptide Homogeneous Time Resolved Fluorescence (HTRF) Assay
Format: binding
measurement_parameters: 0.5 nM N-His-BIR2-3 (125-356, C202A/C213G, XIAP), 20 nM fluorescein labeled dimeric SMAC peptide; HTRF signal; read-out: XIAP BIR2-3 IC50
pIC50: −log10 of the molar value.
value_kind: pIC50

- CN[C@@H](C)C(=O)N[C@H](C(=O)N1Cc2ccc(C(=O)N[C@H]3C[C@@H](C(=O)N[C@@H]4CCCc5ccccc54)N(C(=O)[C@@H](NC(=O)[C@H](C)NC)C(C)(C)C)C3)cc2C[C@H]1C(=O)N[C@@H]1CCCc2ccccc21)C(C)(C)C [Example 25]: 8.52
- CN[C@@H](C)C(=O)N[C@H](C(=O)N1C[C@@H](NC(=O)c2ccc3c(c2)CN(C(=O)[C@@H](NC(=O)[C@@H](NC)C(C)C)C(C)(C)C)[C@H](C(=O)N[C@@H]2CCCc4ccccc42)C3)C[C@H]1C(=O)N[C@@H]1CCCc2ccccc21)C(C)(C)C [Example 4]: 7.96
- CN[C@@H](C)C(=O)N[C@H](C(=O)N1C[C@@H](c2ccc3c(c2)CN(C(=O)[C@@H](NC(=O)[C@H](C)NC)C(C)(C)C)[C@H](C(=O)N[C@@H]2CCCc4ccccc42)C3)C[C@H]1C(=O)N[C@@H](Cc1ccccc1)C(=O)N1CCOCC1)C(C)(C)C [Example 47]: 8.62
- CN[C@@H](C)C(=O)N[C@@H](CC1CCCCC1)C(=O)N1Cc2cc(C(=O)N[C@H]3C[C@@H](C(=O)N[C@@H]4CCCc5ccccc54)N(C(=O)[C@@H](NC(=O)[C@H](C)NC)C(C)(C)C)C3)ccc2C[C@H]1C(=O)N[C@@H]1CCCc2ccccc21 [Example 9]: 8.52
- CN[C@@H](C)C(=O)N[C@H](C(=O)N1Cc2cc([C@H]3C[C@@H](C(=O)N[C@@H]4CCCc5ccccc54)N(C(=O)[C@@H](NC(=O)[C@H](C)NC)C(C)(C)C)C3)ccc2C[C@H]1C(=O)N[C@@H](Cc1ccccc1)c1noc(C)n1)C(C)(C)C [Example 45]: 8.38
- CCC(CC)[C@H](NC(=O)[C@H](CC)NC)C(=O)N1Cc2cc(C(=O)N[C@H]3C[C@@H](C(=O)N[C@@H]4CCCc5ccccc54)N(C(=O)[C@@H](NC(=O)[C@H](C)NC)C(C)(C)C)C3)ccc2C[C@H]1C(=O)N[C@@H]1CCCc2ccccc21 [Example 19]: 8.70
- CN[C@@H](C)C(=O)N[C@H](C(=O)N1C[C@@H](c2ccc3c(c2)CN(C(=O)[C@@H](NC(=O)[C@H](C)NC)C(C)(C)SCC(=O)NC(CO)CO)[C@H](C(=O)N[C@@H]2CCCc4ccccc42)C3)C[C@H]1C(=O)N[C@@H]1CCCc2ccccc21)C(C)(C)C [Example 31]: 8.92
- CN[C@@H](C)C(=O)N[C@H](C(=O)N1Cc2cc([C@H]3C[C@@H](C(=O)N[C@@H]4CCCc5ccccc54)N(C(=O)[C@@H](NC(=O)[C@H](C)NC)C(C)(C)C)C3)ccc2C[C@H]1C(=O)N[C@@H](CO)c1ccccc1F)C(C)(C)C [Example 36]: 8.77
- CN[C@@H](C)C(=O)N[C@H](C(=O)N1Cc2cc([C@H]3C[C@@H](C(=O)N[C@@H]4CCCc5ccccc54)N(C(=O)[C@@H](NC(=O)[C@H](C)NC)C(C)(C)C)C3)ccc2C[C@H]1C(=O)N[C@H](COC)Cc1ccccc1)C(C)(C)C [Example 39]: 8.25
- CN[C@@H](C)C(=O)N[C@H](C(=O)N1C[C@@H](c2ccc3c(c2)CN(C(=O)[C@@H](NC(=O)[C@H](C)NC)C(C)(C)C)[C@H](C(=O)N[C@@H]2CCCc4ccccc42)C3)C[C@H]1C(=O)N[C@@H](Cc1ccccc1)C(=O)Nc1ccc(-c2cnco2)cc1)C(C)(C)C [Example 57]: 8.59
- CN[C@@H](C)C(=O)N[C@H](C(=O)N1Cc2cc([C@H]3C[C@@H](C(=O)N[C@@H]4CCCc5ccccc54)N(C(=O)[C@@H](NC(=O)[C@H](C)NC)C(C)(C)C)C3)ccc2C[C@H]1C(=O)N[C@@H](Cc1ccccc1)C(=O)O)C(C)(C)C [Example 41]: 8.82
- CCC(CC)[C@H](NC(=O)[C@H](CC)NC)C(=O)N1C[C@@H](NC(=O)c2ccc3c(c2)CN(C(=O)[C@@H](NC(=O)[C@H](C)NC)C(C)(C)C)[C@H](C(=O)N[C@@H]2CCCc4ccccc42)C3)C[C@H]1C(=O)N[C@@H]1CCCc2ccccc21 [Example 16]: 8.00
- CN[C@@H](C)C(=O)N[C@H](C(=O)N1C[C@@H](c2ccc3c(c2)CN(C(=O)[C@@H](NC(=O)[C@H](C)NC)C(C)(C)C)[C@H](C(=O)N[C@@H]2CCCc4ccccc42)C3)C[C@H]1C(=O)N[C@@H](Cc1ccccc1)C(=O)N(C)CCOC)C(C)(C)C [Example 55]: 8.07
- CN[C@@H](C)C(=O)N[C@H](C(=O)N1C[C@@H](c2ccc3c(c2)CN(C(=O)[C@@H](NC(=O)[C@H](C)NC)C(C)(C)SCC(=O)N(C)C)[C@H](C(=O)N[C@@H]2CCCc4ccccc42)C3)C[C@H]1C(=O)N[C@@H]1CCCc2ccccc21)C(C)(C)C [Example 30]: 8.24
- CN[C@@H](C)C(=O)N[C@H](C(=O)N1CC(c2ccc3c(c2)CN(C(=O)[C@@H](NC(=O)[C@H](C)NC)C(C)(C)C)[C@H](C(=O)NC2CCCc4ccccc42)C3)C[C@H]1C(=O)NC(Cc1ccccc1)C(=O)N(C)Cc1ccccc1)C(C)(C)C (stereo in doubt) [Example 72]: 8.48
